- test settings: in water, 283.15 K
recorded endpoint: solubility (mole fraction)

Request: Query (compound): `CC(=O)Oc1ccc(C(c2ccc(OC(C)=O)cc2)c2ccccn2)cc1` ; field requested: solubility (mole fraction)
Response: 1.13e-07

---

- test settings: in isopropanol, 278.15 K
recorded endpoint: solubility (mole fraction)
Give bare numbers.

Request: Which solubility (mole fraction) is listed for `CC(=O)Oc1ccc(C(c2ccc(OC(C)=O)cc2)c2ccccn2)cc1` ?
Response: 0.000113

---

- test settings: in isopropanol, 318.15 K
recorded endpoint: solubility (mole fraction)
Answers are plain numbers.

Request: Sample `CC(=O)Oc1ccc(C(c2ccc(OC(C)=O)cc2)c2ccccn2)cc1` — what was its solubility (mole fraction)?
Response: 0.00139

---

- test settings: in methanol, 283.15 K
recorded endpoint: solubility (mole fraction)
Answers are plain numbers.

Request: Sample `CC(=O)Oc1ccc(C(c2ccc(OC(C)=O)cc2)c2ccccn2)cc1` — what was its solubility (mole fraction)?
Response: 0.000716

---

- test settings: in isopropanol, 323.15 K
recorded endpoint: solubility (mole fraction)
Answers are plain numbers.

Request: What does the record list as solubility (mole fraction) for `CC(=O)Oc1ccc(C(c2ccc(OC(C)=O)cc2)c2ccccn2)cc1` ?
Response: 0.00179

---

- test settings: in ethanol, 283.15 K
recorded endpoint: solubility (mole fraction)
Answers are plain numbers.

Request: Field request: solubility (mole fraction) | item: `CC(=O)Oc1ccc(C(c2ccc(OC(C)=O)cc2)c2ccccn2)cc1`
Response: 0.000333

---

- test settings: in methanol, 308.15 K
recorded endpoint: solubility (mole fraction)
Numbers only.

Request: Dear colleague, I am looking for the recorded solubility (mole fraction) of the following molecule: `CC(=O)Oc1ccc(C(c2ccc(OC(C)=O)cc2)c2ccccn2)cc1`
Response: 0.00239

---

- test settings: in isopropanol, 293.15 K
recorded endpoint: solubility (mole fraction)
One number for each entry.

Request: GET /values?readout=solubility (mole fraction)&item= `CC(=O)Oc1ccc(C(c2ccc(OC(C)=O)cc2)c2ccccn2)cc1`
Response: 0.000311
